tested on: HOP-62 NSCLC; assay: NCI tumour cell line growth inhibition, 48 h
Kindly state TGI for each of the entries shown.
Answers are plain numbers, in µM.

Please tell me: TGI of "Cc1c(C(=O)O[C@H]2[C@@H]3[C@H](C)CC[C@H]3[C@]3(C)O[C@@]2(C2CCCCC2)C[C@H]3OC(=O)CO)ccc2ccccc12" , system HOP-62 NSCLC?
15.3

Now the molecule "N=C(c1cccs1)C1(N2CCCCC2)CCCCC1"
47.8

Let us examine a further case.
Please tell me: TGI of O=[As]c1ccc(C(=O)c2ccc(Oc3ccccc3)cc2)cc1 (centres undefined) , system HOP-62 NSCLC?
0.105

meta.source: PubChem BioAssay (NCI)
